Cited source: paper PMC5540273

Tested on: GCN2(Kin.Dom.2,S808G);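 further: KINOMEscan kinase panel screen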
Construct: gene EIF2AK4
study_conditions: concentration: 1 μM, replicates: in singlicate; n = 1
experimental_readout: %Inh (%)

compound=COc1ccc(C2=C(Nc3cccc(O)c3)C(=O)NC2=O)cc1 system=GCN2(Kin.Dom.2,S808G) units_of_measure=% test_result=61
compound=Fc1cc(Cl)ccc1Nc1ccnc2cc(-c3ccc(CN4CCOCC4)o3)ccc12 system=GCN2(Kin.Dom.2,S808G) units_of_measure=% test_result=13
compound=COc1cccc(-c2nc(-c3ccccc3)[nH]c2-c2ccncc2)c1 system=GCN2(Kin.Dom.2,S808G) units_of_measure=% test_result=1
compound=Cc1ccc(O)cc1Nc1ccnc2cc(-c3ccc(CN4CCCCC4)o3)ccc12 system=GCN2(Kin.Dom.2,S808G) units_of_measure=% test_result=0
compound=Fc1cc(Cl)ccc1Nc1ccnc2cc(-c3ccc(CN4CCSCC4)o3)ccc12 system=GCN2(Kin.Dom.2,S808G) units_of_measure=% test_result=0
compound=CS(=O)(=O)c1cccc(CNc2nc(Nc3ccc4c(c3)CCC(=O)N4)ncc2C(F)(F)F)c1 system=GCN2(Kin.Dom.2,S808G) units_of_measure=% test_result=0
compound=CN(c1ccc(F)c(NC(=O)c2cccc(OC(C)(C)C#N)c2Cl)c1)c1ccc2nc(NC(=O)C3CC3)sc2n1 system=GCN2(Kin.Dom.2,S808G) units_of_measure=% test_result=0
compound=COc1cc(Nc2nccc(N3CCC(NS(=O)(=O)c4ccc(NC(C)=O)cc4)CC3)n2)cc(OC)c1OC system=GCN2(Kin.Dom.2,S808G) units_of_measure=% test_result=0
compound=O=C(Nc1n[nH]c2nc(-c3ccccc3)ccc12)C1CC1 system=GCN2(Kin.Dom.2,S808G) units_of_measure=% test_result=0
compound=Cc1ccc(Nc2ccnc(Nc3ccc(C)c(F)c3)n2)cc1O.Cl system=GCN2(Kin.Dom.2,S808G) units_of_measure=% test_result=36
compound=CN(C)CCNS(=O)(=O)c1ccc(-c2ccnc3[nH]ccc23)cc1 system=GCN2(Kin.Dom.2,S808G) units_of_measure=% test_result=14
compound="Cl.Cl.NC(CNC(=O)c1cc(Br)c(-c2ccnc3[nH]ccc23)s1)c1ccccc1 (centres unmarked)" system=GCN2(Kin.Dom.2,S808G) units_of_measure=% test_result=0
compound=N#Cc1cnc2cc(-c3cnc(CNCCN4CCOCC4)s3)ccc2c1Nc1ccc(Oc2ccccc2)cc1 system=GCN2(Kin.Dom.2,S808G) units_of_measure=% test_result=100
compound=O=C(Nc1n[nH]c2cc(-c3cccs3)ccc12)C1CC1 system=GCN2(Kin.Dom.2,S808G) units_of_measure=% test_result=0
compound=CC(C)(C)c1ccc(C(=O)Nc2cn3cc(-n4ccnc4)ccc3n2)cc1 system=GCN2(Kin.Dom.2,S808G) units_of_measure=% test_result=27
compound=CSc1ccc(NC2=C(c3ccc(Cl)cc3)C(=O)NC2=O)cc1 system=GCN2(Kin.Dom.2,S808G) units_of_measure=% test_result=0
compound=CN(C)CCOc1ccc(-c2cc(-c3ccc(Cl)c(O)c3)c(-c3ccncc3)[nH]2)cc1.Cl.Cl system=GCN2(Kin.Dom.2,S808G) units_of_measure=% test_result=0
compound=COC(=O)Nc1nc2ccc(Oc3ccc(NC(=O)Nc4cc(C(F)(F)F)ccc4F)cc3)cc2[nH]1.Cl system=GCN2(Kin.Dom.2,S808G) units_of_measure=% test_result=6
compound=COc1cccc2c(-c3ccncc3)c(-c3ccc(F)cc3)nn12 system=GCN2(Kin.Dom.2,S808G) units_of_measure=% test_result=18
compound="NCCC(NC(=O)c1cc(Br)c(-c2ccnc3[nH]ccc23)s1)c1ccccc1.O=C(O)C(F)(F)F.O=C(O)C(F)(F)F (centres unmarked)" system=GCN2(Kin.Dom.2,S808G) units_of_measure=% test_result=0
compound=COc1ccc(C)c(Nc2ccnc(Nc3ccc(-c4cnc[nH]4)cc3)n2)c1.Cl system=GCN2(Kin.Dom.2,S808G) units_of_measure=% test_result=100
compound=Cc1cc(-c2ccnc(Nc3cccc(C#N)c3)n2)cc(C)c1O system=GCN2(Kin.Dom.2,S808G) units_of_measure=% test_result=0
compound=Nc1ncnc2scc(-c3ccc(NC(=O)Cc4cc(F)ccc4F)cc3)c12.O=C(O)C(F)(F)F system=GCN2(Kin.Dom.2,S808G) units_of_measure=% test_result=19
compound=O=C1NC(=O)C(c2ccccc2Cl)=C1Nc1cccc(Cl)c1 system=GCN2(Kin.Dom.2,S808G) units_of_measure=% test_result=0
compound=N#CC1(c2cccc(C(=O)Nc3cccc(Oc4ccc5nc(NC(=O)C6CC6)sc5n4)c3)c2)CC1 system=GCN2(Kin.Dom.2,S808G) units_of_measure=% test_result=0
compound=COc1cccc(C2=C(Nc3cccc(O)c3)C(=O)NC2=O)c1 system=GCN2(Kin.Dom.2,S808G) units_of_measure=% test_result=0
compound=O=C(Nc1c(F)cccc1F)c1cc(C(=O)c2ccccc2F)c[nH]1 system=GCN2(Kin.Dom.2,S808G) units_of_measure=% test_result=0
compound=CN(C)c1ncnc2nc[nH]c12 system=GCN2(Kin.Dom.2,S808G) units_of_measure=% test_result=0
compound="COc1cc(Nc2nccc(N3CCC(NC(=O)Nc4ccc5c(c4)OCO5)C3)n2)cc(OC)c1OC (centres unmarked)" system=GCN2(Kin.Dom.2,S808G) units_of_measure=% test_result=0
compound=Cc1ccc(NC(=O)c2cccc(N3CCCCC3)c2)cc1-c1ccc(C(=O)NCC2CC2)cc1 system=GCN2(Kin.Dom.2,S808G) units_of_measure=% test_result=15
compound=Cc1ccc(NC(=O)c2ccc(Cl)c(Cl)c2)cc1-c1ccc(C(=O)Nc2ccncc2)cc1 system=GCN2(Kin.Dom.2,S808G) units_of_measure=% test_result=8
compound="Cc1ccc(-c2ccc3occ(-c4ccc(S(C)=O)cc4)c3c2)nn1 (centres unmarked)" system=GCN2(Kin.Dom.2,S808G) units_of_measure=% test_result=1
compound=CN(c1ccc(NC(=O)N2CCN(CCCN3CCOCC3)CC2)cc1)c1ccnc(Nc2ccc(CS(C)(=O)=O)cc2)n1.Cl system=GCN2(Kin.Dom.2,S808G) units_of_measure=% test_result=0
compound=CN(c1ccc2c(c1)nc(NCc1ccccc1)n2C)c1ccnc(Nc2ccc(CS(C)(=O)=O)cc2)n1.Cl system=GCN2(Kin.Dom.2,S808G) units_of_measure=% test_result=0
compound=Cc1ccc(O)cc1Nc1ccnc2ccc(C(C)(C)C)cc12 system=GCN2(Kin.Dom.2,S808G) units_of_measure=% test_result=5
